We begin with a simple list: items and their reported IC50.
- studyTarget: HCV polymerase (NS5B) type 1a (Hepatitis C virus genotype 1a)
- Construct: made in house; host or cells: Escherichia coli (by the 'similar method' of the 1b enzyme)
- assaySummary: Assay of enzyme (HCV polymerase) inhibitory activity, type 1a enzyme
- Assay type: biochemical, HCV type 1a (cloned from the blood of patients)
- testConditions: HCV polymerase inhibitory activity (IC50), 1a, type 1a enzyme 1.5 μg/ml, 25° C., 60 min
Structures can show the parent of a compound that is named as a salt.

{"columns": ["compound", "IC50"],
 "data": [
  ["CCC(F)(F)c1ccc(CNC(=O)[C@H]2CN(c3nc4nn[nH]c(=O)c4s3)CCN2S(=O)(=O)c2ccc(OC(F)(F)F)cc2)cc1 [Example 640]", "< 0.1 µM"],
  ["COCc1ccc(CNC(=O)[C@H]2CN(c3cnc(C(=O)O)cn3)CCN2S(=O)(=O)c2ccc(OC(F)(F)F)cc2)cc1 [Example 473]", "< 0.1 µM"],
  ["CC(C)c1ccc(CNC(=O)[C@H]2CN(C(=O)Cc3cccnc3)CCN2S(=O)(=O)c2ccc(C(F)(F)F)cc2)cc1 [Example 175]", "0.1 to 1 µM"],
  ["CC(=O)N1CCN(S(=O)(=O)c2ccc(OC(F)(F)F)cc2)[C@@H](C(=O)NCC2CCNCC2)C1 [Example 654, hydrochloride]", "> 1 µM"],
  ["CC(=O)N1CCN(S(=O)(=O)c2ccc(C(C)C)cc2)[C@@H](C(=O)NCCc2ccc(Cl)cc2)C1 [Example 138]", "> 1 µM"],
  ["CC(=O)N1CCN(S(=O)(=O)c2ccc(C(C)C)cc2)C(C(=O)NCc2ccccc2Cl)C1 (stereo not shown) [Example 34]", "> 1 µM"],
  ["CC(=O)N1CCN(S(=O)(=O)c2ccc(C(C)C)cc2)[C@@H](C(=O)NCCc2ccccc2Cl)C1 [Example 149]", "> 1 µM"]
]}
